target: OCTN2 (organic cation/carnitine transporter 2) (Mus musculus, UniProt Q9Z0E8)
Sequence (Q9Z0E8 whole entry): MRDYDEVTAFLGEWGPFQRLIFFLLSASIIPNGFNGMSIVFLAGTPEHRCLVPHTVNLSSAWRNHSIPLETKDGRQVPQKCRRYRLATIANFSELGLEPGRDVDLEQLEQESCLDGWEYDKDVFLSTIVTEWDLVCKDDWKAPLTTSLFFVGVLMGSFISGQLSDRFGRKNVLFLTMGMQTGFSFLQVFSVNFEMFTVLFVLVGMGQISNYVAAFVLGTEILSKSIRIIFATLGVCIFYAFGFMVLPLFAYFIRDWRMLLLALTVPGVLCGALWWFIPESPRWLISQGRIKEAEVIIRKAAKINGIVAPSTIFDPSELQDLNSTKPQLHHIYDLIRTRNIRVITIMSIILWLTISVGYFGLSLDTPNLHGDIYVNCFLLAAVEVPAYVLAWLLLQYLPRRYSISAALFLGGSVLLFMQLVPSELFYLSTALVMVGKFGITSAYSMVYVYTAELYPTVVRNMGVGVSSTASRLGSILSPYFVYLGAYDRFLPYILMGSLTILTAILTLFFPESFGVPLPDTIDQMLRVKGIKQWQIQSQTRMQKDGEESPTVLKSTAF
procedure_text: TP_TRANSPORTER: inhibition of Carnitine uptake (Carnitine: 0.01 uM, Verapamil: 500 uM) in OCTN2-expressing HEK293 cells
Type: functional, cell-based
Design: scale not given: the % may be the effect or the level left
protocol_conditions: human, HEK293 cells that express OCTN2, probe carnitine; read-out: Activity
metric: activity at 500 µM
Write the figure, then the unit, nothing else.

Param readout = activity at 500 µM; param system = OCTN2 (organic cation/carnitine transporter 2) (Mus musculus, UniProt Q9Z0E8); param query = COc1ccc(CCN(C)CCCC(C#N)(c2ccc(OC)c(OC)c2)C(C)C)cc1OC (stereo unspecified) ; response: value
1.3%
